# subject_of_test: Prothrombin (Homo sapiens)
# procedure_summary: Concentration required to inhibit Human alpha-thrombin was determined
quantity: IC50 (µM)
Note: unit µM is implicit; provide only the numeric part.

>>> endpoint_value("CC(O)[C@H](NC(=O)[C@H](Cc1ccc([N+](=O)[O-])cc1)NC(=O)CCCN=C(N)N)C(=O)N[C@@H](C)Cc1ccccc1 (some centres undefined)")
0.26
>>> endpoint_value("CC(O)[C@H](NC(=O)[C@H](Cc1ccc([N+](=O)[O-])cc1)NC(=O)CCCN=C(N)N)C(N)=O (some centres undefined)")
230

Note to self: IC50 recorded for CC(O)[C@H](NC(=O)[C@H](Cc1ccc([N+](=O)[O-])cc1)NC(=O)CCCN=C(N)N)C(=O)N[C@H](C(=O)O)C1CCCCC1 (some centres undefined) was 0.055

Note to self: IC50 recorded for CC(O)[C@H](NC(=O)[C@H](Cc1ccc([N+](=O)[O-])cc1)NC(=O)CCCN=C(N)N)C(=O)N[C@H](CO)C1CCCCC1 (some centres undefined) was 0.019
